Molecular target: CDK9/CycT1 (Homo sapiens)
Construct: Recombinant full-length His-tagged human CDK9 and CycT1; His; purchased Invitrogen PV4131; host or cells: insect cells
Sequence (P50750 whole entry): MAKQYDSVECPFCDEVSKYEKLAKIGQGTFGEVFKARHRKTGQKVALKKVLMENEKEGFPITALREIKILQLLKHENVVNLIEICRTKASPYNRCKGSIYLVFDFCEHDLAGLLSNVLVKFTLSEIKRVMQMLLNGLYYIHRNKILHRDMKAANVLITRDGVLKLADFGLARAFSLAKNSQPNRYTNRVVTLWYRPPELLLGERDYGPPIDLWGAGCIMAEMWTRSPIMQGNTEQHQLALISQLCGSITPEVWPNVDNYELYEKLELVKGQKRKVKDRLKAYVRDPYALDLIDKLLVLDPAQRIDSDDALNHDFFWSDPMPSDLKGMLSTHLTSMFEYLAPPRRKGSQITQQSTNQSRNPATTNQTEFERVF
Sequence (O60563 whole entry partner): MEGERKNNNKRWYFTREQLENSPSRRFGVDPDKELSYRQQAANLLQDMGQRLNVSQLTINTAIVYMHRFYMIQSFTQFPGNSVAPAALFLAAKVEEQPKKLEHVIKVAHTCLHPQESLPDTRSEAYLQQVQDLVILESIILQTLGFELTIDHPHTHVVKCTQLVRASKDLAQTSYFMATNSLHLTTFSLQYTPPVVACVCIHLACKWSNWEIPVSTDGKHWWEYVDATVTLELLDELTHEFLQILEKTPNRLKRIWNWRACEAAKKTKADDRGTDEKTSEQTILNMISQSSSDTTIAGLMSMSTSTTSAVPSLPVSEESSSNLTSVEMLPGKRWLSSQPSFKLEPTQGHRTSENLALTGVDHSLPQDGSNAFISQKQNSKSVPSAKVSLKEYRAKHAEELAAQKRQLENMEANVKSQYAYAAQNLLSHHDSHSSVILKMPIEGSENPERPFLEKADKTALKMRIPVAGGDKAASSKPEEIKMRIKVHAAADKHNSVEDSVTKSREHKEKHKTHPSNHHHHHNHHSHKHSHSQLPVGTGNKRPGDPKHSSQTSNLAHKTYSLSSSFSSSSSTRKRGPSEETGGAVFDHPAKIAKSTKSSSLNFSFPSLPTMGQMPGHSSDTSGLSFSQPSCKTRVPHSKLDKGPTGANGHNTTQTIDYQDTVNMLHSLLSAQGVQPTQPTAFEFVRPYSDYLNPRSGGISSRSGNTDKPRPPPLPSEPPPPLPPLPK
Test: CDK9/CycT1 high ATP kinase assay (TR-FRET, 2 mM ATP)
Type: biochemical
Conditions: Method 1b
pIC50: −log10 of the molar value.
Use 8 as the dividing line for pIC50, with the line itself on the YES side and lower values as NO.

Solved entries:
INSERT INTO measurements (molecule, assignedcategory) VALUES
  ('COc1cc(F)ccc1-c1cc(Nc2cc(CS(C)(=O)=NC(C)=O)ccn2)ncc1F (racemic) [Example 13]', 'YES'),
  ('COc1cc(F)ccc1-c1cc(Nc2cc(CS(C)(=N)=O)cc(C(F)(F)F)n2)ncc1F (single isomer, unassigned; (-)) [Example 23]', 'YES'),
  ('CCOc1cc(F)ccc1-c1cc(Nc2cc(CS(C)(=O)=NC(=O)C(F)(F)F)cc(F)n2)ncc1F (racemic) [Example 27]', 'NO'),
  ('COc1cc(F)ccc1-c1cc(Nc2cc(CS(C)(=N)=O)cc(C)n2)ncc1F (racemic) [Example 4]', 'YES'),
  ('CCOc1cc(F)ccc1-c1cc(Nc2cc(CS(C)(=N)=O)cc(F)n2)ncc1F (racemic) [Example 26]', 'YES'),
  ('CCOc1cc(F)ccc1-c1cc(Nc2cc(CS(C)(=N)=O)cc(F)n2)ncc1F (single isomer, unassigned; (-)) [Example 29]', 'YES'),
  ('CCOc1cc(F)ccc1-c1cc(Nc2cc(CS(C)(=N)=O)cc(F)n2)ncc1F (single isomer, unassigned; (+)) [Example 28]', 'YES'),
  ('COc1cc(F)ccc1-c1cc(Nc2cc(CS(C)(=N)=O)cc(C)n2)ncc1F (single isomer, unassigned; (+)) [Example 32]', 'YES'),
  ('COc1cc(F)ccc1-c1cc(Nc2cc(CS(C)(=O)=NC(=O)C(F)(F)F)cc(C(F)(F)F)n2)ncc1F (single isomer, unassigned; (+)) [Example 24]', 'NO');

stdin: Kindly determine if pIC50 recorded for CCOC(=O)N=S(C)(=O)Cc1ccnc(Nc2cc(-c3ccc(F)cc3OC)c(F)cn2)c1 (racemic) [Example 11] is above or exactly 8.
stdout: YES

---

Target: CDK2/CycE (Homo sapiens)
Construct: GST; purchased ProQinase GmbH (Freiburg, Germany); host or cells: insect cells (Sf9)
Test: CDK2/CycE high ATP kinase assay (TR-FRET, 2 mM ATP)
Format: biochemical
Conditions: Method 2b
Hi! Could you tag entries with IC50 below 3000 nM as 1, and those at or above as 0? Much appreciated.

INSERT INTO assay_data (compound, testedsystem, assignedcategory) VALUES
  ('CCOc1cc(F)ccc1-c1cc(Nc2cc(CS(C)(=N)=O)cc(F)n2)ncc1F (single isomer, unassigned; (-)) [Example 29]', 'CDK2/CycE (Homo sapiens)', 1),
  ('COc1cc(F)ccc1-c1cc(Nc2cc(CS(C)(=N)=O)cc(C)n2)ncc1F (single isomer, unassigned; (+)) [Example 32]', 'CDK2/CycE (Homo sapiens)', 1),
  ('COc1cc(F)ccc1-c1cc(Nc2cc(CS(C)(=O)=NC(=O)C(F)(F)F)cc(C(F)(F)F)n2)ncc1F (single isomer, unassigned; (-)) [Example 25]', 'CDK2/CycE (Homo sapiens)', 1);

stdin: Record COc1cc(F)ccc1-c1cc(Nc2cc(CS(C)(=N)=O)cc(C(F)(F)F)n2)ncc1F (racemic) [Example 21] : is its IC50 strictly below 3000 nM?
stdout: 1

stdin: Record COc1cc(F)ccc1-c1cc(Nc2cc(CS(C)(=N)=O)c(Br)c(C)n2)ncc1F (racemic) : is its IC50 strictly below 3000 nM?
stdout: 1

stdin: Record COc1cc(F)ccc1-c1cc(Nc2cc(CS(C)(=O)=NC(=O)C(F)(F)F)cc(C(F)(F)F)n2)ncc1F (single isomer, unassigned; (+)) [Example 24] : is its IC50 strictly below 3000 nM?
stdout: 0
